Overview of reported Fold Change in mRNA Expression of CYP2B6 across a group of molecules:
- System: CYP2B6 mRNA expression
- assay method text: In-vitro CYP induction study, CYP2B6 mRNA in cultured human hepatocytes
- conditions used: 20 μM, approximately 24 h
quantity kind: Fold Change in mRNA Expression of CYP2B6 (fold)

molecule	measured on	reported
CC(C)Nc1cc(-c2c[nH]c(C(=O)N[C@H](CO)c3cccc(Cl)c3)c2)c(Cl)cn1 [Ulixertinib, reference compound]	CYP2B6 mRNA expression	2.43
Cl.[2H]C(C)(C)Nc1cc(-c2c[nH]c(C(=O)N[C@H](CO)c3cccc(Cl)c3)c2)c(Cl)cn1 [Formula 21A]	CYP2B6 mRNA expression	2.22
[2H]C([2H])([2H])C(Nc1cc(-c2c[nH]c(C(=O)N[C@H](CO)c3cccc(Cl)c3)c2)c(Cl)cn1)C([2H])([2H])[2H] [Formula 19]	CYP2B6 mRNA expression	2.44
[2H]C([2H])([2H])C([2H])(Nc1cc(-c2c[nH]c(C(=O)N[C@H](CO)c3cccc(Cl)c3)c2)c(Cl)cn1)C([2H])([2H])[2H] [Formula 18]	CYP2B6 mRNA expression	2.54
